- target.under.test: T1, human VEGF (hVEGF) (human, UniProt P15692 181-395)
- T1 construct: also called VEGF-A
- T1 sequence: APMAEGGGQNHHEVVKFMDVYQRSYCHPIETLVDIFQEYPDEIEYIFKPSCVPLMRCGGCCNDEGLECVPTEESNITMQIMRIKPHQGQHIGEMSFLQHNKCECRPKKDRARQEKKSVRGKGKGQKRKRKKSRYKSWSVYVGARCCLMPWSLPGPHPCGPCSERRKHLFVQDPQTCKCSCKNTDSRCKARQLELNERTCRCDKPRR
- assay.summary: SPR single-cycle
test.readout: Kd

>>> value_observed("G6.31 LC-N94A (Fab, V domains shown, Fab) VH: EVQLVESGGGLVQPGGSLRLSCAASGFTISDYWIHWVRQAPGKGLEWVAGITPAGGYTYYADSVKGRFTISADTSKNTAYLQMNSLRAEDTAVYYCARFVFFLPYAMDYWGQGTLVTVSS VL: DIQMTQSPSSLSASVGDRVTITCRASQDVSTAVAWYQQKPGKAPKLLIYSASFLYSGVPSRFSGSGSGTDFTLTISSLQPEDFATYYCQQGYGAPFTFGQGTKVEIK")
"3.93 nM"
>>> value_observed("G6.31 LC-Q37A (Fab, V domains shown, Fab) VH: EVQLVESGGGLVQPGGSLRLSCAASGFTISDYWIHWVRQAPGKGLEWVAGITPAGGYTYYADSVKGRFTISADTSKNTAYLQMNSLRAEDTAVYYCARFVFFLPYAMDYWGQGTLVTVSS VL: DIQMTQSPSSLSASVGDRVTITCRASQDVSTAVAWYAQKPGKAPKLLIYSASFLYSGVPSRFSGSGSGTDFTLTISSLQPEDFATYYCQQGYGNPFTFGQGTKVEIK")
"0.85 nM"
>>> value_observed("G6.31 HC-T57E (Fab, name in Kabat numbering, V domains shown, Fab) VH: EVQLVESGGGLVQPGGSLRLSCAASGFTISDYWIHWVRQAPGKGLEWVAGITPAGGYEYYADSVKGRFTISADTSKNTAYLQMNSLRAEDTAVYYCARFVFFLPYAMDYWGQGTLVTVSS VL: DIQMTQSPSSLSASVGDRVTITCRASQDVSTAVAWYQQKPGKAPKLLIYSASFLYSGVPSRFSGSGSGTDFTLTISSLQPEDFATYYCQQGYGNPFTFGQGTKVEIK")
"0.2 nM"
>>> value_observed("G6.31 HC-S70H (Fab, name in Kabat numbering, V domains shown, Fab) VH: EVQLVESGGGLVQPGGSLRLSCAASGFTISDYWIHWVRQAPGKGLEWVAGITPAGGYTYYADSVKGRFTIHADTSKNTAYLQMNSLRAEDTAVYYCARFVFFLPYAMDYWGQGTLVTVSS VL: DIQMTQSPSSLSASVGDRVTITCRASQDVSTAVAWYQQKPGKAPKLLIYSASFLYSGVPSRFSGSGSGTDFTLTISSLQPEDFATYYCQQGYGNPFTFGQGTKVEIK")
"1 nM"
>>> value_observed("G6.31 LC-Q89T (Fab, V domains shown, Fab) VH: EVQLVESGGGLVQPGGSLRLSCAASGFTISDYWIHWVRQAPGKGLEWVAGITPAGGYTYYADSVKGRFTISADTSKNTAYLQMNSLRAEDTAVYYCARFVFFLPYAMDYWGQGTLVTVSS VL: DIQMTQSPSSLSASVGDRVTITCRASQDVSTAVAWYQQKPGKAPKLLIYSASFLYSGVPSRFSGSGSGTDFTLTISSLQPEDFATYYCTQGYGNPFTFGQGTKVEIK")
"0.42 nM"
